Biological target: fibrinogen binding to human thrombocytes
Assay: Fibrinogen binding to human thrombocytes
Details: gel-filtered human platelets, 125I fibrinogen, ADP, 20 minutes, ambient temperature; read-out: Fibrinogen-binding test IC50
pIC50: −log10 of the molar value.
Property: pIC50

N=C(N)c1ccc(-c2ccc(OC[C@@H]3C[C@@H](CC(=O)O)CN3c3ncccn3)cc2)cc1 :: 6.70

(A) Cn1nc(-c2ccc(C(=N)N)cc2)cc(C(=O)NC[C@@H]2C[C@@H](CC(=O)O)C(=O)N2)c1=O
(B) N=C(N)N1Cc2ccc(C(=O)NCC[C@@H]3C[C@@H](CC(=O)O)C(=O)N3CCCc3ccccc3)cc2C1
Pick one, A or B : lowest reported pIC50. Which one? Tell me its label. A

(A) N=C(N)c1ccc(-c2ccc(OC[C@@H]3C[C@@H](CC(=O)O)CN3C(=O)c3cccnc3)cc2)cc1
(B) N=C(N)c1ccc(-c2ccc(NC[C@@H]3C[C@@H](CC(=O)O)C(=O)N3)nn2)cc1
(C) N=C(N)c1ccc2c(c1)CCN(C(=O)NCC[C@@H]1C[C@@H](CC(=O)O)C(=O)N1CCCc1ccccc1)CC2
Arrange the 3 entries by pIC50 so the values rise. Would you mind listing the labels in the order asked for? C, A, B

----------
Biological target: fibrinogen binding to human thrombocytes
Experiment: Fibrinogen binding to human thrombocytes
Settings: gel-filtered human platelets, 125I fibrinogen, ADP, 20 minutes, ambient temperature; read-out: Fibrinogen-binding test IC50
Property: IC50 (nM)

These solved cases illustrate the format of a correct answer.
N=C(N)c1ccc(-c2ccc(OC[C@@H]3C[C@@H](CC(=O)O)C(=O)N3c3cccnc3)cc2)cc1 :: 31
O=C(O)C[C@@H]1C[C@@H](CCNC(=O)c2ccc(C3CCNCC3)cc2)N(CCCc2ccccc2)C1=O :: 570
N=C(N)c1ccc(NC(=O)c2cccn(C[C@@H]3C[C@@H](CC(=O)O)C(=O)N3CCCc3ccccc3)c2=O)cc1 :: 55
N=C(N)c1cnc(-c2ccc(OC[C@@H]3C[C@@H](CC(=O)O)C(=O)N3)cc2)s1 :: 42
N=C(N)c1ccc(-c2ccc(OC[C@@H]3C[C@@H](CC(=O)O)C(=O)N3CCCc3ccccc3)nn2)cc1 :: 32

(1) COC(=O)C[C@@H]1C[C@@H](COc2ccc(-c3ccc(C(=N)N)cc3)cc2)N(c2cccnc2)C1=O
(2) Nc1nccc2cc(-c3ccc(OC[C@@H]4C[C@@H](CC(=O)O)C(=O)N4)cc3)ccc12
Pick one, 1 or 2 : lowest reported IC50. Which one? Tell me its label. 2
